B1: TPR 5TU (parent)
chain: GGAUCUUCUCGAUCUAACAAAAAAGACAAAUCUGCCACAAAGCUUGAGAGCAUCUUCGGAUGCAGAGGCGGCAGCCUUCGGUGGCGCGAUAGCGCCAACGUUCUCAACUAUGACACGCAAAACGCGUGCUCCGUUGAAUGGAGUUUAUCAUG

- Variants of: B1
- Experiment Notes: polymerase ribozyme fitness, log enrichment relative to wild type (log ratio); higher = more active; in vitro selection for triplet polymerase activity
Fewer inactive variants are shown than the library holds.
Measurement Type: polymerase ribozyme fitness (log ratio)
When you answer, write just the number.

// below: answered variants
Q. Fill blank: measured polymerase ribozyme fitness (log ratio) of the variant A21G G81U G86U C123A is ____.
A. -1.08

Q. For C57U G94A , what is its reported polymerase ribozyme fitness (log ratio)?
A. -0.629

Q. For U15A A73C G94A , what is its reported polymerase ribozyme fitness (log ratio)?
A. -3.39

Next:
Q. Tell me the measured polymerase ribozyme fitness (log ratio) of G94C A97G C116A , please.
A. -0.587

Q. Return reported polymerase ribozyme fitness (log ratio); argument: C51G U56G C93U
A. -3.95

Q. Requested field: polymerase ribozyme fitness (log ratio). Item: C18U U55A G81C C93U C105U C118G
A. -1.85
